experiment: log P by potentiometric titration octanol/water (Sirius T3); log D7.4 calculated from pKa and log P; type: physicochemical; conditions: potentiometric, octanol/water; read-out: log P
So I've got a bunch of compounds here, and I need their logP values.
Lab note: record the figure alone, no unit after it.

Looking up "CS(=O)(=O)Nc1ccccc1-c1nnn[nH]1" , I see its logP listed as 1.18

logP reading for "COC(=O)c1ccccc1NS(C)(=O)=O" : 1.51

====

assay: log P by potentiometric titration octanol/water (Sirius T3); log D7.4 calculated from pKa and log P; type: physicochemical
propertyLabel: logP

The reported logP of the compound "CONC(=O)c1cccc2nn[nH]c12" was 0.75

Entry "COC(=O)c1cccc2nn[nH]c12" , logP reported as 1.31

So for "CS(=O)(=O)Nc1ccccc1C(=O)O" , the logged logP turned out to be 1.39

Value of logP reported for the compound "COC(=O)c1ccccc1O" is 2.19

Looking up "O=C(O)c1cccc2nc[nH]c12" , I found its logP recorded as -1.4

The recorded logP for "Oc1ccccc1C1(O)COC1" is 0.43

logP in this record for "CONC(=O)c1cccc2oc(=O)[nH]c12" : 0.4

logP recorded for this compound, "COC(=O)c1cccc2nc[nH]c12" , is 1.73

So, "O=C(O)c1cccc2nn[nH]c12" ? Its logP was 1.38

The compound listed as "Oc1ccccc1-c1nnn[nH]1" has a reported logP of 1.54

====

Task for the reader: assign each of the following compounds its reported IC50.
Biological target: Recombinant human glyoxalase I (GLO1) (Homo sapiens)
Construct: purchased R&D Systems 4959-GL
Sequence (Q04760 2-184 limits assumed): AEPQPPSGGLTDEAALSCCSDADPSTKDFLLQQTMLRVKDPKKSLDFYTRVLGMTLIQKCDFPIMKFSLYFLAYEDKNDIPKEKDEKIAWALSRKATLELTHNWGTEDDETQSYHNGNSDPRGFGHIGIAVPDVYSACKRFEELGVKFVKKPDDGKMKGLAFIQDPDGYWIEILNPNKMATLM
Test: GLO1 enzyme inhibition assay (absorbance at 240 nm)
Assay type: biochemical
Details: dose-response curves; read-out: IC50 against GLO1
Write the number in µM without appending the unit.

// recorded IC50 for Oc1ccc(-c2ccccc2)cc1-c1nc2ccccc2s1 [Compound 11a] : 5

Entry Oc1ccc(-c2ccoc2)cc1-c1nc2ccccc2s1 [Compound 11g] ; IC50 = 6.9

According to the records, this compound Cc1cccc(-c2ccc(O)c(-c3nc4ccccc4s3)c2)c1 [Compound 11b] displays IC50 of 6.8

Form: compound = Oc1ccc(N2CCCC2)cc1-c1nc2ccccc2s1 [Compound 11f] ; IC50 = 4.4

Documented IC50 of Oc1ccccc1-c1nc2ccccc2s1 [Compound 11] : 19.6

IC50 for Oc1ccc(-c2cccc(Cl)c2)cc1-c1nc2ccccc2s1 [Compound 11c] is 3.3

====

test: log P by potentiometric titration octanol/water (Sirius T3); log D7.4 calculated from pKa and log P; format: physicochemical; conditions: pH 7.4
Please go through the items and note down their logD.
The reply should be a number, written without any unit.

The recorded logD for "O=C(O)c1cccc2nc[nH]c12" is -2.09

Given item "Oc1ccccc1C1(O)COC1" , the value recorded as its logD is 0.42

logD in this record for "CONC(=O)c1cccc2oc(=O)[nH]c12" : 0.18

Value of measured logD for the entry "COC(=O)c1cccc2nc[nH]c12" : 1.73

====

experiment: pKa by potentiometric titration (Sirius T3); type: physicochemical; conditions: potentiometric, 0.15 M KCl, triplicate; read-out: pKa (pKa,1)
propertyLabel: pKa
Number, no unit, nothing else.

// sample "COC(=O)c1ccccc1NS(C)(=O)=O" , its pKa was 8.86

For reference, reported pKa for "CS(=O)(=O)Nc1ccccc1-c1nnn[nH]1" stands at 3.62

====

Could you please report measured pKa for the items listed next?
assay: pKa by potentiometric titration (Sirius T3); assay type: physicochemical; details: pKa (third printed value)

Entry CONC(=O)c1cccc2nc[nH]c12 [Compound 18] — recorded pKa = > 12

Lab book: pKa of O=C(O)c1cccc2nc[nH]c12 [Compound 4] noted as 12.8
